Provide the recorded apparent KD of MS2 coat protein for the entries that follow.
- Test system: MS2 coat protein
- PROCEDURE_TEXT: apparent KD of MS2 coat protein; designed switch direction (-1 OFF switch, 1 ON switch): -1; higher = weaker reporter binding
- TEST_SETTINGS: input ligand: none

Example sequences with recorded apparent KD of MS2 coat protein:
{"BIOPOLYMER_SEQUENCE": "AAUUGGUUAGGAUAUCGGGAAUAUCACAUGAGGAUCACCCAUGUGACCUUUAUGGUGUCAUGAGAAGGGACGCGGA [Eternabot (L1) Solution 11] (Eterna round: R97, puzzle: Exclusion 5)", "apparent KD of MS2 coat protein": "24.5 nM"}
{"BIOPOLYMER_SEQUENCE": "CUCGUGCAGCAAAGCUGUACGAGUACAUGAGGAUCACCCAUGUAGGAUAUGGUACGCAAAGCGUGCCAGAAGGACGUGAGUUAG [Mat - Exclusion NG 3 - Mod of JL - D95] (Eterna round: R96, puzzle: Exclusion NG 3)", "apparent KD of MS2 coat protein": "59 nM"}
{"BIOPOLYMER_SEQUENCE": "AUCAUGGGAGGAUAUCACCUAUGUUACAUGAGGAUCACCCAUGUGAGACUAAAUGACUGCUGAGAAGGCUCAACGC [Eternabot (Original) Solution 25] (Eterna round: R97, puzzle: Exclusion 5)", "apparent KD of MS2 coat protein": "234 nM"}

Input line: Quick one: give measured apparent KD of MS2 coat protein for CCUCUACAUGAGGAUCACCCAUGUUAGGAUAUGCCGGCCGACCUCGGGUGUGUAAUACGCAGAAGGAACGUUAC [Eternabot (Original) Solution 49] (Eterna round: R97, puzzle: Exclusion 1)
Output line: 2390 nM
